Target: HIV-1 Rev (Human immunodeficiency virus 1, UniProt P04618 P04618:1-116)
Sequence (P04618 whole entry, one chain of several): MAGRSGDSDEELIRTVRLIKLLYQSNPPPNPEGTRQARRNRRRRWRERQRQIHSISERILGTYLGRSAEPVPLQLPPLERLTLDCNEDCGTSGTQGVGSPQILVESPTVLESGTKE
Test: filter; non-specific binding only
Conditions: tags: none stated; heparin-Sepharose and Superose 6 purified; chain copies: oligomer (tetramer likely; about 4 per RBC6, 6-8 per full-length RRE at 50 mM KCl) stated; label: 32P uniform
measurementKind: binding signal (% RNA bound at 10 nM rev)
Write the value in % RNA bound at 10 nM rev as a bare number.

Q: Retrieve binding signal measured for R46 (ssRNA, [none]) RNA: GGGAGACCGGAAUUCUGGGCGCAGUGUCAUUGACGCUGCGGUCAGAAUUCCGGCA and print it.
Result: 1

Q: Retrieve binding signal measured for R53 (ssRNA, [none]) RNA: GGGAGACCGGAAUUCUGGGCGCAGUGUCAUUGACGCUGCGGUGCAGAAUUCCGGCA and print it.
Result: 5

Q: Retrieve binding signal measured for R47 (ssRNA, [none]) RNA: GGGAGACCGGAAUUCUGAGCGCAGUGUCAUUGACGCUGCGGUACAGAAUUCCGGCA and print it.
Result: 6

Q: Retrieve binding signal measured for R40 (ssRNA, [none]) RNA: GGGAGACCGGAAUUCUCGGCGCAGUGUCAUUGACGCUGCGGUAGAGAAUUCCGGCA and print it.
Result: 3

Q: Retrieve binding signal measured for R45 (ssRNA, [none]) RNA: GGGAGACCGGAAUUCUGGGCGCAGUGUCAUUGACGCUGCGGACAGAAUUCCGGCA and print it.
Result: 6

Sourced from patent US5786145A
